Please go through the items and note down their IC50.
molecular target: Histone-arginine methyltransferase CARM1 (Mus musculus, UniProt Q9WVG6); assay: Inhibition of N-terminal His-tagged mouse recombinant CARM1 expressed in Sf9 cells by microbeta counting
Sequence (Q9WVG6 whole entry): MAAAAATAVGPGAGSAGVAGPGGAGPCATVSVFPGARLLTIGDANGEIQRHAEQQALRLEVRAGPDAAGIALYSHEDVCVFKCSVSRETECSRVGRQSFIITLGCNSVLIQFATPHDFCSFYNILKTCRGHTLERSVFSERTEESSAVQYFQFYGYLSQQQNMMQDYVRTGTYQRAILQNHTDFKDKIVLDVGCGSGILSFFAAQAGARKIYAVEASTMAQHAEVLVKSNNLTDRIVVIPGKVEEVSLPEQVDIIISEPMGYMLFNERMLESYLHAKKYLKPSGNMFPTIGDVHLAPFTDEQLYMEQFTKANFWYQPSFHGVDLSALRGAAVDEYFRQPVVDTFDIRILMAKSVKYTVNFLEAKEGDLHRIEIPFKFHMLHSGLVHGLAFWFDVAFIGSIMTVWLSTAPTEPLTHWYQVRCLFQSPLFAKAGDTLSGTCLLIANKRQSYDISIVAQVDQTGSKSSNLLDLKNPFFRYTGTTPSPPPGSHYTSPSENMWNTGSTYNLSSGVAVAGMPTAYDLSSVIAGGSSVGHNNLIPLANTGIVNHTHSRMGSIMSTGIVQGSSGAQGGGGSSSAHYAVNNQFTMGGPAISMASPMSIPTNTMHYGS
Report the figure in µM without appending any unit label.

Identify the measured IC50 of CCc1ccccc1CNC(=O)c1cc(C(F)(F)F)nn1-c1cccc(CNCCNC)c1 for Histone-arginine methyltransferase CARM1 (Mus musculus, UniProt Q9WVG6).
1.61

And for COc1ccccc1CNC(=O)c1cc(C(F)(F)F)nn1-c1cccc(CNCCN(C)C)c1 ?
7.9

And for CNCCNCc1cccc(-n2nc(C(F)(F)F)cc2C(=O)NCc2c(OC)ccc3ccccc23)c1 ?
3.35

And for CNCCNCc1cccc(-n2nc(C(F)(F)F)cc2C(=O)NCc2nc3ccccc3n2C)c1 ?
4.7

And for COc1ccccc1CNC(=O)c1cc(C(F)(F)F)nn1-c1cccc(CNC(=S)[C@H](C)N)c1 ?
4.5

And for CNCCNCc1cccc(-n2nc(C(F)(F)F)cc2C(=O)NCc2ccccc2C)c1 ?
13.1

And for CNCCNCc1cccc(-n2nc(C(F)(F)F)cc2C(=O)NCc2ccccc2OC)c1 ?
0.2

And for CNCCNCc1cc(-n2nc(C(F)(F)F)cc2C(=O)NCc2ccccc2OC)ccc1F ?
5.6

And for CCOc1ccccc1CNC(=O)c1cc(C(F)(F)F)nn1-c1cccc(CNCCNC)c1 ?
0.9

And for CNCCNCc1cc(-n2nc(C(F)(F)F)cc2C(=O)NCc2ccccc2OC)ccc1C ?
7.94

And for CNCCNCc1cccc(-n2nc(C(F)(F)F)cc2C(=O)NCCc2c[nH]c3ccccc23)c1 ?
1.8

And for CNCCNCc1cccc(-n2nc(C(F)(F)F)cc2C(=O)NCc2cc(F)ccc2OC)c1 ?
0.71

And for CNCCNCc1cccc(-n2nc(C(F)(F)F)cc2C(=O)NCc2cccc3ccccc23)c1 ?
0.32

And for CNCCNCc1cccc(-n2nc(C(F)(F)F)cc2C(=O)NCc2ccccc2OC(F)(F)F)c1 ?
6.5

====

Please go through the items and note down their clearance.
test: Clearance in iv dosed rat; assay type: ADME, organism-based; settings: in vivo
Report the figure in mL/min/kg without appending any unit label.

# query: clearance of entry CCOc1ccccc1CNC(=O)c1cc(C(F)(F)F)nn1-c1cccc(CNCCNC)c1
20

And for CNCCNCc1cccc(-n2nc(C(F)(F)F)cc2C(=O)NCc2ccccc2OC)c1 ?
20

And for CNCCNCc1cccc(-n2nc(C(F)(F)F)cc2-c2nnc(-c3ccccc3OC)o2)c1 ?
36.7

And for CNCCNCc1cccc(-n2nc(C(F)(F)F)cc2C(=O)NCc2cccc3ccccc23)c1 ?
38.3

====

assay: Volume of distribution at steady state in iv dosed rat; format: ADME, organism-based; details: in vivo, read-out: Vdss
recorded-endpoint: Vd (L/kg)
Report the figure in L/kg without appending any unit label.

# query: Vd of entry CNCCNCc1cccc(-n2nc(C(F)(F)F)cc2C(=O)NCc2cccc3ccccc23)c1
0.2

And for CCOc1ccccc1CNC(=O)c1cc(C(F)(F)F)nn1-c1cccc(CNCCNC)c1 ?
0.1

And for CNCCNCc1cccc(-n2nc(C(F)(F)F)cc2-c2nnc(-c3ccccc3OC)o2)c1 ?
0.6

And for CNCCNCc1cccc(-n2nc(C(F)(F)F)cc2C(=O)NCc2ccccc2OC)c1 ?
1.4
